- SUBJECT_OF_TEST: Pol IV (E. coli DNA polymerase IV, DinB) (Escherichia coli)
- Construct: full-length, untagged as far as told, pET11a plasmid pRM112 (T7 promoter) and mutant derivatives, purified from E. coli; 351 residues
- MEASUREMENT_PROTOCOL: pre-steady-state single-nucleotide primer extension, […] gel assay
- Format: biochemical
- EXPERIMENTAL_CONTEXT: apparent Kd for dNTP; kpol given as kcat; undamaged template 13/20A (opposite dA); 200 nM DNA, 400 nM polymerase, 10 mM MgCl2, pH 7.5, 25°C
MEASURED_METRIC: pKd
The meaning of pKd here: minus log10 of the concentration in molar units.

Cc1cn([C@H]2C[C@H](O)[C@@H](COP(=O)(O)OP(=O)(O)OP(=O)(O)O)O2)c(=O)[nH]c1=O [dTTP] yielded pKd of 3.68

###

- SUBJECT_OF_TEST: Pol IV (E. coli DNA polymerase IV, DinB) (Escherichia coli, UniProt Q47155, T120P)
- Construct: full-length, untagged as far as told, pET11a plasmid pRM112 (T7 promoter) and mutant derivatives, purified from E. coli; 351 residues
- Sequence (Q47155 whole entry T120P): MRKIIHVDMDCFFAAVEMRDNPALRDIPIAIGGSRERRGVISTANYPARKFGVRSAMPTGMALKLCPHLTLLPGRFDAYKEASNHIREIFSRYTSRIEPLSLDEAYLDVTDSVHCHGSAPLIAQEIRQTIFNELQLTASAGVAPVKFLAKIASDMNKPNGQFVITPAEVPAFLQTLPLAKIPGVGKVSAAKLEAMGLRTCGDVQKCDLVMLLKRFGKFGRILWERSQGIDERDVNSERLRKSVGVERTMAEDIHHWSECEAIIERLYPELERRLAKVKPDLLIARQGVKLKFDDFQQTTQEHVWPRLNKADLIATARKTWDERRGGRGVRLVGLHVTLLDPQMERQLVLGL
- MEASUREMENT_PROTOCOL: pre-steady-state single-nucleotide primer extension, […] gel assay
- Assay type: biochemical
- EXPERIMENTAL_CONTEXT: apparent Kd for dNTP; kpol given as kcat; undamaged template 13/20A (opposite dA); 200 nM DNA, 400 nM polymerase, 10 mM MgCl2, pH 7.5, 25°C
MEASURED_METRIC: Kd (µM)
Field format: number, assumed µM, no unit text.

So the reported Kd for Cc1cn([C@H]2C[C@H](O)[C@@H](COP(=O)(O)OP(=O)(O)OP(=O)(O)O)O2)c(=O)[nH]c1=O [dTTP] , on Pol IV (E. coli DNA polymerase IV, DinB) (Escherichia coli, UniProt Q47155, T120P), turned out to be 39
